B1: VH:VL chains; a variant is named by its letters at X, in order (parent)
chain 1: QVQLVQSGAEVKKPGASVKVSCKASGYTFTDYXMHWVRQAPGQGLEWMGXVNPNXXXTTYNQKFEGRVTMTTDTSTSTAYMELRSLRSDDTAVYYCARXNXLDXWGQGTTVTVSS
chain 2: DIQMTQSPSSLSASVGDRVTITCSVSSSVSSIYLHWYQQKPGKAPKLLIYSTSNLASGVPSRFSGSGSGTDFTLTISSLQPEDFATYYCQVYSGYPLTFGGGTKVEIK

# Variants of: B1
# protocol.notes: yeast display scFab, FACS + sequencing
experimental.endpoint: non-specific binding call

Study these solved cases before continuing.
FAGEGAGV    no binding
FKGRGFGV    binds
VRAGDSLS    no binding
YRAGGDWY    binds
VTGEDDGD    no binding

GET /values?readout=non-specific binding call&item= YTGEGSWV no binding

Repeat for the following variant: YRAKGSAD binds
